Measured log10 of IC50, listed per entry.
- TESTED ON: recombinant human α5β1 (Homo sapiens, UniProt P05556+P08648)
- Sequence (P08648 42-1049): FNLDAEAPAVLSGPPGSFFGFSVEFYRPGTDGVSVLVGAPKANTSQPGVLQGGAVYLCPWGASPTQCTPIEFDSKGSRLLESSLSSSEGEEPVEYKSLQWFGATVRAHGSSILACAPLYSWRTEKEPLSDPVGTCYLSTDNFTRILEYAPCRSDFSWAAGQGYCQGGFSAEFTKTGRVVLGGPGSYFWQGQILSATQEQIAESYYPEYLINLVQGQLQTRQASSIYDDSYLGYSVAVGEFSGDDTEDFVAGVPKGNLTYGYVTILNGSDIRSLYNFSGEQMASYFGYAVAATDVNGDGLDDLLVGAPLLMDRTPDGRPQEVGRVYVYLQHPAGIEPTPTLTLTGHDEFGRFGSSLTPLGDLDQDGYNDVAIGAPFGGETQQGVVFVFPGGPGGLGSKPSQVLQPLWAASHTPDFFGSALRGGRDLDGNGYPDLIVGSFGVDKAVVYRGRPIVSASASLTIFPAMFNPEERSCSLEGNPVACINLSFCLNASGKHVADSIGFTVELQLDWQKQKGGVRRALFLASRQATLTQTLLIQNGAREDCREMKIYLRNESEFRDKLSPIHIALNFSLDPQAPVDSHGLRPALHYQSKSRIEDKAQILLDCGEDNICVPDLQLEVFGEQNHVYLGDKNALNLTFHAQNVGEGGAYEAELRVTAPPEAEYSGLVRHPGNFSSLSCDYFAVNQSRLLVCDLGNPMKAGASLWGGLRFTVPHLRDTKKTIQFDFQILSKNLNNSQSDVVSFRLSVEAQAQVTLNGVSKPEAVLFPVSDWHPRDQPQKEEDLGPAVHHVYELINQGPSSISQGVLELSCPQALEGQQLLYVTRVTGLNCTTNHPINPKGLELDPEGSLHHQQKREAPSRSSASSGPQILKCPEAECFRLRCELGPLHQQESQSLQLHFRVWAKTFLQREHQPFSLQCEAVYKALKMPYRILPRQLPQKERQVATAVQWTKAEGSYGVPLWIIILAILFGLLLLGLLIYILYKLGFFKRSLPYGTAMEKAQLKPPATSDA
- Sequence (P05556 21-798): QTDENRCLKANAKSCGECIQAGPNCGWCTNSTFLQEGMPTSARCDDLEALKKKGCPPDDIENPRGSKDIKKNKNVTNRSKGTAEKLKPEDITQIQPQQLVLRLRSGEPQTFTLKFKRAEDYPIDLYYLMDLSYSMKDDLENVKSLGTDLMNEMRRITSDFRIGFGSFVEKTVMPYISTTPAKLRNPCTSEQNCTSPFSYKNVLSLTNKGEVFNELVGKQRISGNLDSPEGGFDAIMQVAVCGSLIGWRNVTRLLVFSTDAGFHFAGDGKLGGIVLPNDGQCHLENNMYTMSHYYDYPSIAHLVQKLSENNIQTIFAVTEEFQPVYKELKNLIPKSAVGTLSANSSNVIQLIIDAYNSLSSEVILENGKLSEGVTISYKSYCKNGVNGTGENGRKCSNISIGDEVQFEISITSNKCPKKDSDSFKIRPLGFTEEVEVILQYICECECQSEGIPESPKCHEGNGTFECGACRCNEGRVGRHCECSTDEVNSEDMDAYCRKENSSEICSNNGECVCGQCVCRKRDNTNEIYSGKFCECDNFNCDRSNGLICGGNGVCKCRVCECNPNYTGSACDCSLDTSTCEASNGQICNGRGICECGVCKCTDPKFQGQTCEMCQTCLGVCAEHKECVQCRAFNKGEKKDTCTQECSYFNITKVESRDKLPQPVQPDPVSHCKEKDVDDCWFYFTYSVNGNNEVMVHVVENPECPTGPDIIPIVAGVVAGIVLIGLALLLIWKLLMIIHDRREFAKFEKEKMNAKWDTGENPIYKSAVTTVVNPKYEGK
- PROTOCOL SUMMARY: In Vitro Binding Assay (a): inhibition of binding of α5β1 integrin to a fragment of human fibronectin (Fn9-10), Origen electrochemiluminescence
- CONDITION DESCRIPTION: geometric mean where tested more than once
Would you kindly interpret these values as log10 of IC50 expressed in nM?

Take a look at these entries with their results.
- CNc1cccc(CCOc2ccc(C[C@H](NC(=O)c3cnccc3C)C(=O)O)cc2)n1: 1.36
- CNc1cccc(CCOc2ccc(C[C@H](NC(=O)c3ccc(Cl)nc3Cl)C(=O)O)cc2)n1: 1.59
- CNc1cccc(CCOc2ccc(C[C@H](NC(=O)c3cnccc3Cl)C(=O)O)cc2)n1: 0.90

Which log10 of IC50 reading was recorded for the compound O=C(N[C@@H](Cc1ccc(OCCc2ccc3c(n2)NCCO3)cc1)C(=O)O)c1ccncc1Cl ?
0.70

----------
- TESTED ON: recombinant human α5β1 (Homo sapiens, UniProt P05556+P08648)
- PROTOCOL SUMMARY: In Vitro Binding Assay (a): inhibition of binding of α5β1 integrin to a fragment of human fibronectin (Fn9-10), Origen electrochemiluminescence
- CONDITION DESCRIPTION: geometric mean where tested more than once
Measured IC50, listed per entry.

Take a look at these entries with their results.
- CNc1cccc(CCOc2ccc(C[C@H](NC(=O)c3ccncc3C)C(=O)O)cc2)n1 [Example 1.21]: 10 nM
- O=C(N[C@@H](Cc1ccc(CCCc2ccc3c(n2)NCCC3)cn1)C(=O)O)c1sccc1Cl [Example 8]: 4 nM
- CNc1cccc(CCOc2ccc(C[C@H](NC(=O)c3ccc(C)nc3Cl)C(=O)O)cc2)n1 [Example 1.2]: 19 nM

Lab note: need IC50 with recombinant human α5β1 (Homo sapiens, UniProt P05556+P08648) for entry CNc1cccc(CCOc2ccc(C[C@H](NC(=O)c3nc(Cl)ccc3Cl)C(=O)O)cc2)n1 [Example 1.22] , please look it up.
34 nM

Lab note: need IC50 with recombinant human α5β1 (Homo sapiens, UniProt P05556+P08648) for entry CNc1cccc(CCOc2ccc(C[C@H](NC(=O)c3cc(C)cs3)C(=O)O)cc2)n1 [Example 1.27] , please look it up.
50 nM

Lab note: need IC50 with recombinant human α5β1 (Homo sapiens, UniProt P05556+P08648) for entry Cc1cnccc1C(=O)N[C@@H](Cc1ccc(OCCc2ccc3c(n2)NCCO3)cc1)C(=O)O [Example 4.5] , please look it up.
4 nM

Lab note: need IC50 with recombinant human α5β1 (Homo sapiens, UniProt P05556+P08648) for entry O=C(N[C@@H](Cc1ccc(OCCc2ccc3c(n2)NCCC3)cc1)C(=O)O)c1sccc1Cl [Example 5.2] , please look it up.
1 nM

Lab note: need IC50 with recombinant human α5β1 (Homo sapiens, UniProt P05556+P08648) for entry CCc1sccc1C(=O)N[C@@H](Cc1ccc(OCCc2ccc3c(n2)NCCC3)cc1)C(=O)O [Example 5.6] , please look it up.
1 nM

Lab note: need IC50 with recombinant human α5β1 (Homo sapiens, UniProt P05556+P08648) for entry CNc1cccc(CCOc2ccc(C[C@H](NC(=O)c3oc4ccccc4c3C)C(=O)O)cc2)n1 [Example 2.5] , please look it up.
80 nM

Lab note: need IC50 with recombinant human α5β1 (Homo sapiens, UniProt P05556+P08648) for entry CCCc1cc(C(=O)N[C@@H](Cc2ccc(OCCc3cccc(NC)n3)cc2)C(=O)O)cs1 [Example 1.29] , please look it up.
71 nM

----------
- TESTED ON: recombinant human α5β1 (Homo sapiens, UniProt P05556+P08648)
- PROTOCOL SUMMARY: In Vitro Binding Assay (a): inhibition of binding of α5β1 integrin to a fragment of human fibronectin (Fn9-10), Origen electrochemiluminescence
- CONDITION DESCRIPTION: geometric mean where tested more than once
Measured IC50, listed per entry.
Reply with just the number (in nM).

Which IC50 reading was recorded for the molecule CNc1cccc(CCOc2ccc(C[C@H](NC(=O)c3sc(C)nc3C)C(=O)O)cc2)n1 [Example 1.5] ?
41

Which IC50 reading was recorded for the molecule CNc1cccc(CCOc2ccc(C[C@H](NC(=O)c3c(C)nn(C)c3C)C(=O)O)cc2)n1 [Example 1.14] ?
13

Which IC50 reading was recorded for the molecule CNc1cccc(CCOc2ccc(C[C@H](NC(=O)c3ccncc3Cl)C(=O)O)cc2)n1 [Example 2.1] ?
7

----------
- TESTED ON: recombinant human α5β1 (Homo sapiens, UniProt P05556+P08648)
- PROTOCOL SUMMARY: In Vitro Binding Assay (a): inhibition of binding of α5β1 integrin to a fragment of human fibronectin (Fn9-10), Origen electrochemiluminescence
- CONDITION DESCRIPTION: geometric mean where tested more than once
- Description: The assay determined the ability of compounds to inhibit binding of α5β1 integrin to a cognate ligand, a fragment of human fibronectin. The assay used Origen technology (IGEN International) to measure the compound activity. […] The ruthenium-labeled tag emits an electrochemiluminescence signal upon stimulation which is detected by the Origen reader. […]
// assign 1 (yes) if IC50 falls strictly below 20 nM, else 0 (no) (ties count as 0 (no))

Answered cases to consult:
- CCSc1ncccc1C(=O)N[C@@H](Cc1ccc(OCCc2cccc(NC)n2)cc1)C(=O)O [Example 2.3]: 0 (no)
- CNc1cccc(CCOc2ccc(C[C@H](NC(=O)c3scnc3C)C(=O)O)cc2)n1 [Example 1.16]: 0 (no)

I wonder whether CNc1cccc(CCOc2ccc(C[C@H](NC(=O)c3cccnc3C)C(=O)O)cc2)n1 [Example 2.6] has IC50 below 20 nM. Can you tell?
0 (no)

I wonder whether O=C(N[C@@H](Cc1ccc(OCCc2ccc3c(n2)NCCO3)cc1)C(=O)O)c1sccc1Cl [Example 4.2] has IC50 below 20 nM. Can you tell?
0 (no)

I wonder whether CNc1cccc(CCOc2ccc(C[C@H](NC(=O)c3sccc3Cl)C(=O)O)nc2)n1 [Example 7] has IC50 below 20 nM. Can you tell?
0 (no)

I wonder whether CNc1cccc(CCOc2ccc(C[C@H](NC(=O)c3sccc3C)C(=O)O)cc2)n1 [Example 1.8] has IC50 below 20 nM. Can you tell?
1 (yes)

----------
- TESTED ON: recombinant human α5β1 (Homo sapiens, UniProt P05556+P08648)
- PROTOCOL SUMMARY: In Vitro Binding Assay (a): inhibition of binding of α5β1 integrin to a fragment of human fibronectin (Fn9-10), Origen electrochemiluminescence
- CONDITION DESCRIPTION: geometric mean where tested more than once
REPORTED ENDPOINT: pIC50
Field pIC50 (float): negative decimal logarithm of the concentration in molar.

* CNc1cccc(CCOc2ccc(C[C@H](NC(=O)c3csc(C(C)C)c3)C(=O)O)cc2)n1 | 6.88
* Cc1noc(C)c1C(=O)N[C@@H](Cc1ccc(OCCc2ccc3c(n2)NCCO3)cc1)C(=O)O | 9.00

Now take the following molecule into account.
Which pIC50 reading was recorded for the molecule CNc1cccc(CCOc2ccc(C[C@H](NC(=O)c3ncccc3C)C(=O)O)cc2)n1 ?
6.88

----------
- TESTED ON: recombinant human α5β1 (Homo sapiens, UniProt P05556+P08648)
- PROTOCOL SUMMARY: In Vitro Binding Assay (a): inhibition of binding of α5β1 integrin to a fragment of human fibronectin (Fn9-10), Origen electrochemiluminescence
- CONDITION DESCRIPTION: geometric mean where tested more than once
REPORTED ENDPOINT: IC50 (nM)
Reply with just the number (in nM).

- CNc1cccc(CCOc2ccc(C[C@H](NC(=O)c3occc3C)C(=O)O)cc2)n1: 151
- CNc1cccc(CCOc2ccc(C[C@H](NC(=O)c3ocnc3C)C(=O)O)cc2)n1: 250
- CNc1cccc(CCOc2ccc(C[C@H](NC(=O)c3c(C)n[nH]c3C)C(=O)O)cc2)n1: 17

Now take the following molecule into account.
Lab note: need IC50 with recombinant human α5β1 (Homo sapiens, UniProt P05556+P08648) for entry Cn1c(C(=O)N[C@@H](Cc2ccc(OCCc3ccc4c(n3)NCCC4)cc2)C(=O)O)c(Cl)c2ccccc21 , please look it up.
94
